Each record here notes measured Kd.
Target Or Test System: T1, human IL-11Rα (form used in the assay not stated) (human, UniProt Q14626 23-363, limits assumed)
T1 construct: also called hIL-11R; hIL-11Rα
T1 sequence: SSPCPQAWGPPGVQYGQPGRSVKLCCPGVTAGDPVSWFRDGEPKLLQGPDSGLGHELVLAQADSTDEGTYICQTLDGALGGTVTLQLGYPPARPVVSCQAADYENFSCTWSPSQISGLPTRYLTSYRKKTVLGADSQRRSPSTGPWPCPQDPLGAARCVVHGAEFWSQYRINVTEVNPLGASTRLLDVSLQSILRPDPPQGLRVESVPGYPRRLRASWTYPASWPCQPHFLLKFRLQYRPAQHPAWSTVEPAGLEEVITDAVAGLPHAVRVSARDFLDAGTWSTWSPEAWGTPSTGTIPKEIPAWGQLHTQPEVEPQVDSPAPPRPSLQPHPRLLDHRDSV
Experimental Protocol: Biacore, pH 8.5, 37°C
Answer with the number, then the unit.

Example binders with recorded Kd:
>>> value_measured("hu8E2-TS-312 (antibody, V domains shown) VH: EVQLLESGGGLVQPGGSLRLSCAASGFTFSWYSMTWVRQAPGKGLEWVSSIVPSGGHTQYADSVKGRFTISRDNSKNTLYLQMNSLRAEDTAVYYCAKGPGWGSFDLWGRGTLVTVSS VL: DIQMTQSPSSLSASVGDRVTITCQASQDIGQYVEWYQQKPGKAPKLLIYDASNLQTGVPSRFSGSGSGTDFTFTISSLQPEDIATYYCQQYDNLSPTFGPGTKVDIK")
"1760 pM"
>>> value_measured("hu8E2-TS-7 (antibody, V domains shown) VH: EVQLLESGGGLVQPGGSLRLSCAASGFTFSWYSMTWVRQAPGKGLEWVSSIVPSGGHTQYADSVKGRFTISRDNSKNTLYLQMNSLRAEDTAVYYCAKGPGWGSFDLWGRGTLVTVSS VL: DIQMTQSPSSLSASVGDRVTITCQASQDINNYLNWYQQKPGKAPKLLIYDASNLQTGVPSRFSGSGSGTDFTFTISSLQPEDIATYYCQQHENQSPTFGPGTKVDIK")
"108 pM"
>>> value_measured("hu8E2-TS-21 (antibody, V domains shown) VH: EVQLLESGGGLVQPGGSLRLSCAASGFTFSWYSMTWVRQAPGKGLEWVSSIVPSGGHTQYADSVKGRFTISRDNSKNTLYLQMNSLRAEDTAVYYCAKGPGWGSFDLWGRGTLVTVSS VL: DIQMTQSPSSLSASVGDRVTITCQASQDINNYLNWYQQKPGKAPKLLIYDASNLQTGVPSRFSGSGSGTDFTFTISSLQPEDIATYYCQQSESQSPTFGPGTKVDIK")
"230 pM"
>>> value_measured("hu8E2-TS-322 (antibody, V domains shown) VH: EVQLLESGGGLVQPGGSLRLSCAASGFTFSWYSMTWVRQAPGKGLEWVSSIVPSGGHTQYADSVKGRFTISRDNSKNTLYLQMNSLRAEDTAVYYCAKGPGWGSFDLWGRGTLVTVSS VL: DIQMTQSPSSLSASVGDRVTITCQASQDVHHYMEWYQQKPGKAPKLLIYDASNLQTGVPSRFSGSGSGTDFTFTISSLQPEDIATYYCQQYDNLSPTFGPGTKVDIK")
"6010 pM"
>>> value_measured("hu8E2-TS-32 (antibody, V domains shown) VH: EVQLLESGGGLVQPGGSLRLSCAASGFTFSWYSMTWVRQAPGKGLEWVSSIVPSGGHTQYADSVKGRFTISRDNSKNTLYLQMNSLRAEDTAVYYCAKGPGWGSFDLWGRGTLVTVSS VL: DIQMTQSPSSLSASVGDRVTITCQASQDINNYLNWYQQKPGKAPKLLIYDASNLQTGVPSRFSGSGSGTDFTFTISSLQPEDIATYYCTQWETQSPTFGPGTKVDIK")
"9560 pM"
>>> value_measured("hu8E2-TS-9 (antibody, V domains shown) VH: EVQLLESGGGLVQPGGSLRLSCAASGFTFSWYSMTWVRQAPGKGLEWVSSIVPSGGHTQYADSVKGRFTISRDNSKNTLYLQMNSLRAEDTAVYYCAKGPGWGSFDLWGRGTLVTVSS VL: DIQMTQSPSSLSASVGDRVTITCQASQDINNYLNWYQQKPGKAPKLLIYDASNLQTGVPSRFSGSGSGTDFTFTISSLQPEDIATYYCQQAEEQSPTFGPGTKVDIK")
"2290 pM"
>>> value_measured("hu8E2-TS-51 (antibody, V domains shown) VH: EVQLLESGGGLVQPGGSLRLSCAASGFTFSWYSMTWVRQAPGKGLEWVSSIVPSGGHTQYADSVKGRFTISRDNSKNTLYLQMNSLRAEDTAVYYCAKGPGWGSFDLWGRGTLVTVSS VL: DIQMTQSPSSLSASVGDRVTITCQASQDINNYLNWYQQKPGKAPKLLIYDASNLQTGVPSRFSGSGSGTDFTFTISSLQPEDIATYYCQQYESQWPFFGPGTKVDIK")
"455 pM"
>>> value_measured("hu8E2-TS-14 (antibody, V domains shown) VH: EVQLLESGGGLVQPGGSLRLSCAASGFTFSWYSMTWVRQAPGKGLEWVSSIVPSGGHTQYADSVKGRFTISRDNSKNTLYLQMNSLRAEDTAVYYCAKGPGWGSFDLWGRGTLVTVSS VL: DIQMTQSPSSLSASVGDRVTITCQASQDINNYLNWYQQKPGKAPKLLIYDASNLQTGVPSRFSGSGSGTDFTFTISSLQPEDIATYYCQQHDNQSPTFGPGTKVDIK")
"342 pM"
>>> value_measured("hu8E2-TS-63 (antibody, V domains shown) VH: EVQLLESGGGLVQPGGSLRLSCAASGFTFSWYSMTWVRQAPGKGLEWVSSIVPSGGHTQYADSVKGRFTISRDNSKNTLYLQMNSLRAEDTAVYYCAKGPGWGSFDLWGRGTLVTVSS VL: DIQMTQSPSSLSASVGDRVTITCQASQDINNYLNWYQQKPGKAPKLLIYDASNLQTGVPSRFSGSGSGTDFTFTISSLQPEDIATYYCQQYDTQQPNFGPGTKVDIK")
"642 pM"

Now look at this entry.
Q: So what's the measured Kd for this one? hu8E2-TS-2 (antibody, V domains shown) VH: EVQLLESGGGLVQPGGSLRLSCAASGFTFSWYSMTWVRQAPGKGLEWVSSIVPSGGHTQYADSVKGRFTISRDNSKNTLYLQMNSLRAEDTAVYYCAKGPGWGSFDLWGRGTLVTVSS VL: DIQMTQSPSSLSASVGDRVTITCQASQDINNYLNWYQQKPGKAPKLLIYDASNLQTGVPSRFSGSGSGTDFTFTISSLQPEDIATYYCQQAEDQSPTFGPGTKVDIK
Ans: 529 pM

src = patent US20160031999A1
